# Lookup of reported LD50 at 24 h keyed by entry
# Assay Notes: Acute toxicity (LD50), 24 hour values
# Applied Conditions: mouse, in vivo, po; mice, p.o., 24 hour value; read-out: LD50 p.o.

Known LD50 at 24 h results, listed for orientation:
CN1Cc2cc(O)ccc2C(c2ccc(Cl)cc2)C1 (stereo not drawn) ... 1000 to 2000 mg/kg
CN1Cc2cc(O)ccc2C(c2ccc(Cl)c(Cl)c2)C1 (stereo not drawn) ... 500 to 1000 mg/kg

Okay, now this compound:
[Q] Which value of LD50 at 24 h has been reported for COc1ccc2c(c1)CN(C)CC2c1ccc(Cl)c(Cl)c1 (stereo not drawn) in the records?
[A] 1000 to 2000 mg/kg
